Ref: the supplement of paper PMC9233669

Test system: biotinyl-Phe-oxazolone
assay explanation: self-aminoacylation, catalytic enhancement (BFO) (fold over background); higher = more active; k-Seq, kA / k0A0; sequences stand for … in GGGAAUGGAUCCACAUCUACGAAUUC…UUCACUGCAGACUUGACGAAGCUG
Fewer inactive variants are shown than the library holds.
Binary classification by self-aminoacylation, with 4 as an inclusive lower bound for yes (1); all other cases are no (0).

**Query** Reported self-aminoacylation at or above 4? AUUCACAUAGGUCAUCGGAUG [Fam2.2 aminoacylation ribozyme variant]
**Result** no (0)

**Query** Reported self-aminoacylation at or above 4? AUUACCCUGGUCUUCGAGUGG [Fam2.1 aminoacylation ribozyme variant]
**Result** yes (1)

**Query** Reported self-aminoacylation at or above 4? UUUCACCGAGGUCAUCGGGUG [Fam2.2 aminoacylation ribozyme variant]
**Result** yes (1)

**Query** Reported self-aminoacylation at or above 4? AAGUAUGCUAAUAAUCGCAAG [Fam3.1 aminoacylation ribozyme variant]
**Result** no (0)

**Query** Reported self-aminoacylation at or above 4? AUUACCCUGGCCAUCCAGUGA [Fam2.1 aminoacylation ribozyme variant]
**Result** yes (1)

**Query** Reported self-aminoacylation at or above 4? AUUACCCUGGGCAACGAGUGA [Fam2.1 aminoacylation ribozyme variant]
**Result** yes (1)

**Query** Reported self-aminoacylation at or above 4? AAGUUCGAUAAUAGUCGCAAG [Fam3.1 aminoacylation ribozyme variant]
**Result** no (0)

**Query** Reported self-aminoacylation at or above 4? UCACACUUCGAGCAAUCGGUC [Fam1B.1 aminoacylation ribozyme variant]
**Result** no (0)

**Query** Reported self-aminoacylation at or above 4? CCACACUUCAGGCAACCGGUC [Fam1B.1 aminoacylation ribozyme variant]
**Result** no (0)

**Query** Reported self-aminoacylation at or above 4? CCACACUUCAAGUAAUCGGUA [Fam1B.1 aminoacylation ribozyme variant]
**Result** no (0)

**Query** Reported self-aminoacylation at or above 4? AUUCACCUACGUCAUCGAGUG [Fam2.2 aminoacylation ribozyme variant]
**Result** yes (1)

**Query** Reported self-aminoacylation at or above 4? CUACUUCAAACAAUCGGAUUG [Fam1A.1 aminoacylation ribozyme variant]
**Result** no (0)

**Query** Reported self-aminoacylation at or above 4? AUUCACCUGGCUCAUCGGGUG [Fam2.2 aminoacylation ribozyme variant]
**Result** yes (1)

**Query** Reported self-aminoacylation at or above 4? CCACACUUCAAUCAACCGGUC [Fam1B.1 aminoacylation ribozyme variant]
**Result** no (0)

**Query** Reported self-aminoacylation at or above 4? CUACUUCAAACAAUCGAGCUG [Fam1A.1 aminoacylation ribozyme variant]
**Result** no (0)

**Query** Reported self-aminoacylation at or above 4? AUUACCCUGGUCAGAGAGUGA [Fam2.1 aminoacylation ribozyme variant]
**Result** yes (1)

###

Test system: biotinyl-Val-oxazolone
assay explanation: self-aminoacylation, catalytic enhancement (BVO) (fold over background); higher = more active; k-Seq, kA / k0A0; sequences stand for … in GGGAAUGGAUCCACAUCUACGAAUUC…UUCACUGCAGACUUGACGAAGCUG
This sample holds only a part of the variants without activity.
quantity name: self-aminoacylation
Number only, no unit.

Looking up UUUCACCUAGGUCAUCGGGUC [Fam2.2 aminoacylation ribozyme variant] , I see its self-aminoacylation listed as 2.09

Looking up CCACAGUUCAAGCAAUCGGUA [Fam1B.1 aminoacylation ribozyme variant] , I see its self-aminoacylation listed as 1.13

Looking up CCACAUUUGAAGCAAUCGGUC [Fam1B.1 aminoacylation ribozyme variant] , I see its self-aminoacylation listed as 1.31

Looking up CUACUUCAGACACUCGGUCUG [Fam1A.1 aminoacylation ribozyme variant] , I see its self-aminoacylation listed as 1.54

Looking up AUCCACCUAGGUAAUCGGGUG [Fam2.2 aminoacylation ribozyme variant] , I see its self-aminoacylation listed as 3.1

Looking up CUGCUUCAAACAAUCGGGCUG [Fam1A.1 aminoacylation ribozyme variant] , I see its self-aminoacylation listed as 2.33

Looking up CUUCUUCAGACAAUCGGUCUG [Fam1A.1 aminoacylation ribozyme variant] , I see its self-aminoacylation listed as 0.751

Looking up CUACUUUAGACAAUCGGUCUG [Fam1A.1 aminoacylation ribozyme variant] , I see its self-aminoacylation listed as 0.826

Looking up AUUACCCAGGUCAUCCAGUGA [Fam2.1 aminoacylation ribozyme variant] , I see its self-aminoacylation listed as 3.14

Looking up AUUACCCUGGCCAUCGAAUGA [Fam2.1 aminoacylation ribozyme variant] , I see its self-aminoacylation listed as 1.31

Looking up AUUAGCCUGGUCAUCGAGAGA [Fam2.1 aminoacylation ribozyme variant] , I see its self-aminoacylation listed as 1.25

Looking up AAGUUUGCUAAUAGCCACAAG [Fam3.1 aminoacylation ribozyme variant] , I see its self-aminoacylation listed as 0.827

Looking up AUUCCCCUGGUCAUCGAGGGA [Fam2.1 aminoacylation ribozyme variant] , I see its self-aminoacylation listed as 1.55

Looking up CUACUUCAACCAAUCGGACUG [Fam1A.1 aminoacylation ribozyme variant] , I see its self-aminoacylation listed as 0.946

Looking up CUACAUUUCAAGCAAUCGGUC [Fam1B.1 aminoacylation ribozyme variant] , I see its self-aminoacylation listed as 0.849

Looking up AAGUUUGCUAAUAGUCCGAAG [Fam3.1 aminoacylation ribozyme variant] , I see its self-aminoacylation listed as 1.02

Looking up CUACUUCAAACAAUAGGUCUA [Fam1A.1 aminoacylation ribozyme variant] , I see its self-aminoacylation listed as 0.776

Looking up CCACAUUUCAAGCAACCGGUC [Fam1B.1 aminoacylation ribozyme variant] , I see its self-aminoacylation listed as 1.64
